Data origin, for the record: patent US20090270447A1

List of IC50 values.
Tested on: securin "knock out" cells D8 (Securin−/−)
Assay remarks: Growth inhibition of securin knock out cells D8 (SRB, 5 days)
Type: cell-based
Test settings: 120 h; securin knock out D8 cells, 5 days, SRB

| Molecule | Target or system | IC50, µM |
| --- | --- | --- |
| CN(C)c1ccc(-c2nc3c(s2)C(O)CNC3)cc1 (racemic) | securin "knock out" cells D8 (Securin−/−) | 0.931 |
| CN(C)c1ccc(-c2nc3c(s2)[C@H](O)CNC3)cc1 | securin "knock out" cells D8 (Securin−/−) | 0.395 |
| CN(C)c1ccc(-c2nc3c(s2)[C@@H](O)CNC3)cc1 | securin "knock out" cells D8 (Securin−/−) | 2.19 |
| COC(=O)c1cc(N2CCCC2)ccc1-c1nc2c(s1)C(O)CNC2 (stereo not shown) | securin "knock out" cells D8 (Securin−/−) | 0.342 |
| O[C@H]1CNCc2nc(-c3ccc(N4CCCC4)cc3)sc21 | securin "knock out" cells D8 (Securin−/−) | 21.6 |
| O[C@@H]1CNCc2nc(-c3ccc(N4CCCC4)cc3)sc21 | securin "knock out" cells D8 (Securin−/−) | 0.45 |
| CN(C)c1ccc(-c2nc3c(s2)C(O)COC3)cc1Br (stereo not shown) | securin "knock out" cells D8 (Securin−/−) | 14.3 |
| CN(C)c1ccc(-c2nc3c(s2)C(O)COC3)cc1 (stereo not shown) | securin "knock out" cells D8 (Securin−/−) | 1.12 |
| O=[N+]([O-])c1cc(N2CCCC2)ccc1-c1nc2c(s1)C(O)CNC2 (stereo not shown) | securin "knock out" cells D8 (Securin−/−) | 2.95 |
| OCc1cc(N2CCCC2)ccc1-c1nc2c(s1)C(O)CNC2 (racemic) | securin "knock out" cells D8 (Securin−/−) | 0.0808 |
| CN(C)c1ccc(-c2nc3c(s2)C(O)CNC3)c(CO)c1 (stereo not shown) | securin "knock out" cells D8 (Securin−/−) | 0.0989 |
| COC(=O)c1cc(N(C)C)ccc1-c1nc2c(s1)C(O)CNC2 (stereo not shown) | securin "knock out" cells D8 (Securin−/−) | 0.53 |
| OCc1cc(N2CCCC2)ccc1-c1nc2c(s1)[C@H](O)CNC2 | securin "knock out" cells D8 (Securin−/−) | 0.0406 |
| Nc1cc(N2CCCC2)ccc1-c1nc2c(s1)C(O)CNC2 (stereo not shown) | securin "knock out" cells D8 (Securin−/−) | 0.0379 |
| OC1CNCc2nc(-c3ccc(N4CCCC4)cc3)sc21 (stereo not shown) | securin "knock out" cells D8 (Securin−/−) | 0.68 |
| CN1Cc2nc(-c3ccc(N(C)C)cc3)sc2C(O)C1 (stereo not shown) | securin "knock out" cells D8 (Securin−/−) | 2.48 |
